Biological target: PDE10 (UniProt Q9Y233)
Assay: PDE10 enzyme inhibition, IMAP TR-FRET assay (MPDE10A7 Enzyme Activity and Inhibition)
Type: biochemical
Conditions: IC50 class against PDE10; read-out: IC50
Task for the reader: assign each of the following compounds its reported IC50.

# compound, IC50
records = [
    ("COc1cncc(-c2nccnc2Oc2ccc(C(=O)c3nc4ccccc4[nH]3)cc2)c1", "< 25 nM"),
    ("c1ccc2sc(Nc3ccc(Oc4nccnc4N4CCCC4)cc3)nc2c1", "25 to 100 nM"),
]

For each of the compounds below, state IC50.
1. [2H]C([2H])([2H])C(=O)N1CCC(c2nccnc2Oc2ccc(C(=O)c3nc4ccccc4[nH]3)cc2)CC1
2. CC(=O)N1CCC(c2nccnc2Oc2ccc(Nc3nc4ccccc4s3)nc2)CC1

A)
< 25 nM
250 to 1000 nM

// input: 5 compounds below; output: IC50 for each
1. COC[C@@H]1CCCN1c1nccnc1Oc1ccc(Nc2nc3ccccc3s2)cc1
2. c1ccc2sc(Nc3ccc(Oc4nccnc4N4CCc5[nH]cnc5C4)cc3)nc2c1
3. O=C(c1ccc(Oc2nccnc2OCCc2ccccn2)cc1)c1nc2ccccc2[nH]1
4. O=C1CCCC(c2nccnc2Oc2ccc(Nc3nc4ccccc4s3)cc2)C1 (racemic)
5. O=C(c1ccc(Oc2nccnc2Oc2cccnc2)cc1)c1nc2ccccc2[nH]1

A)
1. < 25 nM
2. 25 to 100 nM
3. 25 to 100 nM
4. < 25 nM
5. 100 to 250 nM

Dear colleague, could you send me IC50 for each of the items below? Thanks.
1. COc1ncc(-c2nccnc2Oc2ccc(Nc3nc4ccccc4s3)cc2)cn1
2. CC(O)(C1CCN(c2nccnc2Oc2ccc(Nc3nc4ccccc4s3)cc2)CC1)C(F)(F)F (stereo not drawn)
3. COc1ncccc1-c1nccnc1Oc1ccc(Nc2nc3cccc(F)c3s2)cc1
4. COc1ncccc1-c1nccnc1Oc1ccc(Nc2nc3cc(F)ccc3s2)cc1
5. N#Cc1ccc(-c2nccnc2Oc2ccc(C(=O)c3nc4ccccc4[nH]3)cc2)cc1
6. Fc1ccc2nc(Nc3ccc(Oc4nccnc4C4CCOCC4)cc3)sc2c1
7. OC[C@@H]1CCN(c2nccnc2Oc2ccc(Nc3nc4ccccc4s3)cc2)C1
8. Cc1ncccc1-c1nccnc1Oc1ccc(C(=O)c2nc3ccccc3n2C)cc1

A)
< 25 nM
250 to 1000 nM
25 to 100 nM
25 to 100 nM
< 25 nM
< 25 nM
< 25 nM
25 to 100 nM

Take each entry in turn and give its IC50.
1. CC(=O)OC(C)C(=O)N1CCC(c2nccnc2Oc2ccc(C(=O)c3nc4ccccc4[nH]3)cc2)CC1 (stereo not drawn)
2. CC(C)N1CCN(c2nccnc2Oc2ccc(Nc3nc4ccccc4s3)cc2)CC1=O

A)
["< 25 nM", "25 to 100 nM"]

Would you mind listing IC50 for each of the following compounds?
1. O=C(c1ccc(Oc2nccnc2C2CCNCC2)cc1)c1nc2ccccc2[nH]1
2. O[C@H]1CCC[C@H](c2nccnc2Oc2ccc(Nc3nc4ccccc4s3)cc2)C1 (racemic)

A)
1. < 25 nM
2. < 25 nM

* * *

Would you kindly list pIC50 for each of these compounds?
Molecular target: PDE10 (UniProt Q9Y233)
Assay: PDE10 enzyme inhibition, IMAP TR-FRET assay (MPDE10A7 Enzyme Activity and Inhibition)
Assay type: biochemical
Conditions: PDE10 enzyme inhibition; average IC50 data for each compound; read-out: Average IC50
Answers are plain numbers, as −log10 of the molar value.

In the examples that follow, each entry is paired with its recorded pIC50.
# compound, target system, reported metric, quantitative result
records = [
    ("CN1CCC(c2nccnc2Oc2ccc(C(=O)c3nc4ccccc4[nH]3)cc2)=CC1=O [drawing 921]", "PDE10 (UniProt Q9Y233)", "pIC50", 8.73),
    ("CCOc1nccnc1Oc1ccc(C(=O)c2nc3ccccc3[nH]2)cc1", "PDE10 (UniProt Q9Y233)", "pIC50", 7.34),
    ("O=C(c1ccc(Oc2nccnc2-c2ccncc2)cc1)c1nc2ccccc2[nH]1 [drawing 755]", "PDE10 (UniProt Q9Y233)", "pIC50", 8.12),
]

Moving on to the next compound.
Q) I have this compound here, O=C(c1ccc(Oc2nccnc2C(=O)NCCc2ccccc2)cc1)c1nc2ccccc2[nH]1 [drawing 827] , and I need its recorded pIC50.
A) 8.35
